assay: Toxicity in Galleria mellonella larvae assessed as survival rate at 47.9 uM measured after 18 hrs (reference value: 100%)
value.type: survival at 18 h, 47.9 µM (%)
Field format: number, assumed %, no unit text.

Identify measured survival at 18 h, 47.9 µM corresponding to c1ccc(-c2nnn(CCCN3CCCC3c3ccccc3)n2)cc1 (stereo unspecified)
100

----------
What inhibition of growth at 0.17 µM was measured for each of the following?
tested on: Candida albicans; experiment: Antifungal activity against Candida albicans ATCC 90028 assessed as planktonic growth inhibition at 0.17 uM after 48 hrs by M27-A3 protocol based method relative to control; format: functional; details: ATCC 90028, 48 h, read-out: GI
Express your answer in %, writing the number without its unit.

Look up and state reported inhibition of growth at 0.17 µM for Cc1ccc(-c2nnn(CCCN3CCCC3c3ccc(F)cc3)n2)cc1 (stereo unspecified)
99.1

Consider the compound Cc1ccc(-c2nnn(CCCN3CCCC3c3ccc(C)cc3)n2)cc1 (stereo unspecified) . State its measured inhibition of growth at 0.17 µM.
99.3

Specify reported inhibition of growth at 0.17 µM for the compound shown: Cc1ccc(-c2nnn(CCCN3CCCC3c3cccc(C)c3)n2)cc1 (stereo unspecified)
98.9

Answer with the recorded inhibition of growth at 0.17 µM for the compound listed here: Clc1ccccc1-c1nnn(CCCN2CCCC2c2ccccc2)n1 (stereo unspecified)
98.9

Specify measured inhibition of growth at 0.17 µM for Clc1ccc(C2CCCN2CCCn2nnc(-c3ccccc3)n2)cc1 (stereo unspecified) .
99.3

Using the record for Clc1ccc(-c2nnn(CCCN3CCCC3c3ccccc3)n2)cc1 (stereo unspecified) , state its measured inhibition of growth at 0.17 µM.
99.3
